The next entries give measured Kd for Apo-AI (Homo sapiens).
observation-type: Kd (µM)

Below: 2 compounds and their reported Kd.
[[record]]
mol_smiles = "CC1=C(/C=C/C(C)=C/C=C/C(C)=C/C=C/C=C(C)/C=C/C=C(C)/C=C/C2=C(C)C[C@@H](O)CC2(C)C)C(C)(C)C[C@H](O)C1"
assayed_system = "Apo-AI (Homo sapiens)"
units_of_measure = "µM"
recorded_value = 5.62

[[record]]
mol_smiles = "CC1=C(/C=C/C(C)=C/C=C/C(C)=C/C=C/C=C(C)/C=C/C=C(C)/C=C/C2=C(C)C[C@H](O)CC2(C)C)C(C)(C)C[C@H](O)C1"
assayed_system = "Apo-AI (Homo sapiens)"
units_of_measure = "µM"
recorded_value = 7.9


(A) CC1=C(/C=C/C(C)=C/C=C/C(C)=C/C=C/C=C(C)/C=C/C=C(C)/C=C/C2=C(C)CCCC2(C)C)C(C)(C)CCC1
(B) CC1=C[C@H](O)CC(C)(C)[C@H]1/C=C/C(C)=C/C=C/C(C)=C/C=C/C=C(C)/C=C/C=C(C)/C=C/C1=C(C)C[C@@H](O)CC1(C)C
Of A and B , which carries the smaller reported Kd figure? To answer, give the label that identifies your chosen option.
A
(A: 0.33 µM, B: 12.1 µM)

----------
# assayed-system: Apo-AII (Homo sapiens, UniProt P02652)
# Sequence (P02652 24-100): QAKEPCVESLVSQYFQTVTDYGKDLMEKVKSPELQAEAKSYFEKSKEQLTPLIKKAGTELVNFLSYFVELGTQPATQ
pKd: −log10 of the molar value.
observation-type: pKd

[[record]]
mol_smiles = "CC1=C(/C=C/C(C)=C/C=C/C(C)=C/C=C/C=C(C)/C=C/C=C(C)/C=C/C2=C(C)C[C@H](O)CC2(C)C)C(C)(C)C[C@H](O)C1"
assayed_system = "Apo-AII (Homo sapiens, UniProt P02652)"
recorded_value = 5.80


(1) CC1=C(/C=C/C(C)=C/C=C/C(C)=C/C=C/C=C(C)/C=C/C=C(C)/C=C/C2=C(C)C[C@@H](O)CC2(C)C)C(C)(C)C[C@H](O)C1
(2) CC1=C[C@H](O)CC(C)(C)[C@H]1/C=C/C(C)=C/C=C/C(C)=C/C=C/C=C(C)/C=C/C=C(C)/C=C/C1=C(C)C[C@@H](O)CC1(C)C
Compare reported pKd values for 1 and 2 . Which is lower? Bench note: the answer is the label of the chosen record.
2

----------
For Apo-E (Homo sapiens), measured pKd is reported for the entries below.
pKd: −log10 of the molar value.
observation-type: pKd

[[record]]
compound = "CC1=C(/C=C/C(C)=C/C=C/C(C)=C/C=C/C=C(C)/C=C/C=C(C)/C=C/C2=C(C)C[C@H](O)CC2(C)C)C(C)(C)C[C@H](O)C1 [meso-Zeaxanthin]"
recorded_value = 5.21


(I) CC1=C(/C=C/C(C)=C/C=C/C(C)=C/C=C/C=C(C)/C=C/C=C(C)/C=C/C2=C(C)C[C@@H](O)CC2(C)C)C(C)(C)C[C@H](O)C1 [Zeaxanthin]
(II) CC1=C(/C=C/C(C)=C/C=C/C(C)=C/C=C/C=C(C)/C=C/C=C(C)/C=C/C2=C(C)CCCC2(C)C)C(C)(C)CCC1 [β-Carotene]
(III) CC1=C[C@H](O)CC(C)(C)[C@H]1/C=C/C(C)=C/C=C/C(C)=C/C=C/C=C(C)/C=C/C=C(C)/C=C/C1=C(C)C[C@@H](O)CC1(C)C [Lutein]
List by increasing pKd. Rank the items, then write their labels in that order.
III, I, II

----------
Target or system Human IRBP (Homo sapiens, UniProt P10745); recorded quantity Kd.
observation-type: Kd (nM)

(A) CC1=C(/C=C/C(C)=C/C=C/C(C)=C/C=C/C=C(C)/C=C/C=C(C)/C=C/C2=C(C)CCCC2(C)C)C(C)(C)CCC1 [β-Carotene]
(B) CC1=C(/C=C/C(C)=C/C=C/C(C)=C/C=C/C=C(C)/C=C/C=C(C)/C=C/C2=C(C)C(=O)[C@@H](O)CC2(C)C)C(C)(C)C[C@H](O)C1=O [Astaxanthin]
Which of the two items, A and B , has the greater recorded Kd? Please respond with the label that marks your chosen entry.
B
(B: 1640 nM, A: 920 nM)

----------
# assayed-system: Apo-D (Homo sapiens, UniProt P05090)
# Sequence (P05090 21-189): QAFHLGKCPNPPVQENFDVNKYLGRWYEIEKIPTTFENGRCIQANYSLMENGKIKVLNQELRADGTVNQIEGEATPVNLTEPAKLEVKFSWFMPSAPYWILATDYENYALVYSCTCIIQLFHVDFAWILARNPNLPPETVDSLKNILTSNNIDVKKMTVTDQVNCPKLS
observation-type: Kd (µM)

[[record]]
mol_smiles = "CC1=C[C@H](O)CC(C)(C)[C@H]1/C=C/C(C)=C/C=C/C(C)=C/C=C/C=C(C)/C=C/C=C(C)/C=C/C1=C(C)C[C@@H](O)CC1(C)C"
recorded_value = 84


(1) CC1=C(/C=C/C(C)=C/C=C/C(C)=C/C=C/C=C(C)/C=C/C=C(C)/C=C/C2=C(C)C[C@H](O)CC2(C)C)C(C)(C)C[C@H](O)C1
(2) CC1=C(/C=C/C(C)=C/C=C/C(C)=C/C=C/C=C(C)/C=C/C=C(C)/C=C/C2=C(C)CCCC2(C)C)C(C)(C)CCC1
(3) CC1=C(/C=C/C(C)=C/C=C/C(C)=C/C=C/C=C(C)/C=C/C=C(C)/C=C/C2=C(C)C[C@@H](O)CC2(C)C)C(C)(C)C[C@H](O)C1
Arrange the 3 compounds from largest to smallest Kd. # respond with the labels, arranged in the requested order
3, 1, 2
(3: 68.2 µM, 1: 45.6 µM, 2: 0.01 µM)

----------
pKd, UniProt:P10745: measured values
pKd: −log10 of the molar value.
observation-type: pKd

[[record]]
compound = "CC1=C[C@H](O)CC(C)(C)[C@H]1/C=C/C(C)=C/C=C/C(C)=C/C=C/C=C(C)/C=C/C=C(C)/C=C/C1=C(C)C[C@@H](O)CC1(C)C [Lutein]"
assayed_system = "UniProt:P10745"
observation_type = "pKd"
recorded_value = 5.97

[[record]]
compound = "CC1=C(/C=C/C(C)=C/C=C/C(C)=C/C=C/C=C(C)/C=C/C=C(C)/C=C/C2=C(C)C[C@H](O)CC2(C)C)C(C)(C)C[C@H](O)C1 [meso-Zeaxanthin]"
assayed_system = "UniProt:P10745"
observation_type = "pKd"
recorded_value = 5.73

[[record]]
compound = "CC1=C(/C=C/C(C)=C/C=C/C(C)=C/C=C/C=C(C)/C=C/C=C(C)/C=C/C2=C(C)C[C@@H](O)CC2(C)C)C(C)(C)C[C@H](O)C1 [Zeaxanthin]"
assayed_system = "UniProt:P10745"
observation_type = "pKd"
recorded_value = 5.79

